subject of test: ACAT enzyme (rabbit intestinal mucosa microsome) (Oryctolagus cuniculus)
Sequence (G1SFD9 1-524): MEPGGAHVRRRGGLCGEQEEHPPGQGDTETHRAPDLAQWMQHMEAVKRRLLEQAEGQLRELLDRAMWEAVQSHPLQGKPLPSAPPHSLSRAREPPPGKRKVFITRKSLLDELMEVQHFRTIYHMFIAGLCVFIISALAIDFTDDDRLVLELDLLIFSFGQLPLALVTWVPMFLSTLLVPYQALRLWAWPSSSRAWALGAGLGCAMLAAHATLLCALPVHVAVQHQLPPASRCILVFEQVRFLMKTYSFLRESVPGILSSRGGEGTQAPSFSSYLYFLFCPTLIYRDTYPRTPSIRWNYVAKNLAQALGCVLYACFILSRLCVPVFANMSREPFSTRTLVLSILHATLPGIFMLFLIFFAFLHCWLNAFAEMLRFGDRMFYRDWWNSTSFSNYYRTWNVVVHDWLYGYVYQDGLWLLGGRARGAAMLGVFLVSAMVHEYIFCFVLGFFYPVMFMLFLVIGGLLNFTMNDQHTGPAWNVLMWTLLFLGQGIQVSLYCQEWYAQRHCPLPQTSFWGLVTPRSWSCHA
measurement context: read-out: ACAT Inhibitory Activity, IC50; rabbit intestinal mucosa microsome, [1-14C] oleoyl CoA, 37° C.
property: IC50 (nM)
# output: bare number, implied unit nM

Read the entry CCCCCCCCCCCCCCC(C)(C)C(=O)Nc1c(OC)ccc2c(=O)ccoc12 and write its reported IC50. 52

* * *

Observed log10 of IC50, system ACAT enzyme (rabbit intestinal mucosa microsome) (Oryctolagus cuniculus).
Values below are the log10 of the recorded IC50, with nM as the unit.

Past entries and their recorded results:
INSERT INTO results (given_smiles, property, assay_result) VALUES
  ('CCCCCCCCCCC(C)(C)C(=O)Nc1c(OCCC)ccc2c1OCCC2=O', 'log10 of IC50', 1.15),
  ('Cc1ccc2c(c1NC(=O)C(C)(C)CCCCCCOCCCC(C)C)OCCC2=O', 'log10 of IC50', 2.30),
  ('COc1ccc(C2(CNC(=O)Nc3c(C)ccc4c3OCCC4=O)CCCC2)cc1', 'log10 of IC50', 2.70);

State the measured log10 of IC50 (ACAT enzyme (rabbit intestinal mucosa microsome) (Oryctolagus cuniculus)) of COc1ccc2c(=O)ccoc2c1NC(=O)C(C)(C)CCCCCOc1ccc(Cl)cc1 2.20

State the measured log10 of IC50 (ACAT enzyme (rabbit intestinal mucosa microsome) (Oryctolagus cuniculus)) of CCCCCCCCCCCCCCCC(=O)Nc1c(C)ccc2c1OCCC2=O 0.89

State the measured log10 of IC50 (ACAT enzyme (rabbit intestinal mucosa microsome) (Oryctolagus cuniculus)) of COc1ccc2c(c1NC(=O)C(C)(C)CCCCCCOc1ccc(Cl)cc1)C(=O)CCO2 2.26

State the measured log10 of IC50 (ACAT enzyme (rabbit intestinal mucosa microsome) (Oryctolagus cuniculus)) of COc1ccc2c(c1NC(=O)C(C)(C)CCCCCCOc1ccc(C)cc1)OCCC2=O 1.63
